System: biotinyl-Leu-oxazolone
assay.procedure: self-aminoacylation, catalytic enhancement (BLO) (fold over background); higher = more active; k-Seq, kA / k0A0; sequences stand for … in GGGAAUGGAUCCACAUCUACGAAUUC…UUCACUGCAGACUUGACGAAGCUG
Fewer inactive variants are shown than the library holds.
I'd appreciate it if you could supply self-aminoacylation values for the items below.
Provide a numeric answer; units are not to be included.

Problem: Specify the recorded self-aminoacylation for AUUUACGUAGGUCAUCGGGUG [Fam2.2 aminoacylation ribozyme variant] , system: biotinyl-Leu-oxazolone.
Solution: 3.68

Problem: Please look at CUCCUUCAAGCAAUCGGUCUG [Fam1A.1 aminoacylation ribozyme variant] and tell me its recorded self-aminoacylation on biotinyl-Leu-oxazolone.
Solution: 1.58

Problem: Would you please give the reported self-aminoacylation of AAGUUUGCUAAAAAUCGCAAG [Fam3.1 aminoacylation ribozyme variant] with biotinyl-Leu-oxazolone?
Solution: 0.891

Problem: Report value only: self-aminoacylation, biotinyl-Leu-oxazolone, CCACACUUCAAGCGACCGGUC [Fam1B.1 aminoacylation ribozyme variant]
Solution: 1.33

Problem: State the measured self-aminoacylation (biotinyl-Leu-oxazolone) of CUUACCCUGGUCAUCCAGUGA [Fam2.1 aminoacylation ribozyme variant]
Solution: 4.63

Problem: Report measured self-aminoacylation on biotinyl-Leu-oxazolone; entry: AUUCACCUAGGUCAUCAGUUG [Fam2.2 aminoacylation ribozyme variant]
Solution: 0.942

Problem: Give biotinyl-Leu-oxazolone self-aminoacylation for the following sequence: CAACACCUCAAGCAAUCGGUC [Fam1B.1 aminoacylation ribozyme variant]
Solution: 1.1

Problem: Enter measured self-aminoacylation, system biotinyl-Leu-oxazolone, for the sequence shown: AUUAACCUGGGUCAUCGGGUG [Fam2.2 aminoacylation ribozyme variant]
Solution: 15.6

Problem: Fetch value of self-aminoacylation on biotinyl-Leu-oxazolone for AUUACCCAUGUCAUCGAGUGA [Fam2.1 aminoacylation ribozyme variant] .
Solution: 8.07

Problem: Lab note: record self-aminoacylation of CUACCUCAAACAAUCGGUCUA [Fam1A.1 aminoacylation ribozyme variant] tested on biotinyl-Leu-oxazolone.
Solution: 0.89

Problem: Identify measured self-aminoacylation obtained with biotinyl-Leu-oxazolone for AUUACCCUAGCCAUCGAGUGA [Fam2.1 aminoacylation ribozyme variant] .
Solution: 3.46

Problem: Tell me its self-aminoacylation on biotinyl-Leu-oxazolone: CAGUUAGCUAAUAGUCGCAAG [Fam3.1 aminoacylation ribozyme variant]
Solution: 1.04
